System: human cannabinoid receptor 1 (huCB1), full length, expressed on cells (human, UniProt P21554 1-472)
Sequence (P21554 whole entry): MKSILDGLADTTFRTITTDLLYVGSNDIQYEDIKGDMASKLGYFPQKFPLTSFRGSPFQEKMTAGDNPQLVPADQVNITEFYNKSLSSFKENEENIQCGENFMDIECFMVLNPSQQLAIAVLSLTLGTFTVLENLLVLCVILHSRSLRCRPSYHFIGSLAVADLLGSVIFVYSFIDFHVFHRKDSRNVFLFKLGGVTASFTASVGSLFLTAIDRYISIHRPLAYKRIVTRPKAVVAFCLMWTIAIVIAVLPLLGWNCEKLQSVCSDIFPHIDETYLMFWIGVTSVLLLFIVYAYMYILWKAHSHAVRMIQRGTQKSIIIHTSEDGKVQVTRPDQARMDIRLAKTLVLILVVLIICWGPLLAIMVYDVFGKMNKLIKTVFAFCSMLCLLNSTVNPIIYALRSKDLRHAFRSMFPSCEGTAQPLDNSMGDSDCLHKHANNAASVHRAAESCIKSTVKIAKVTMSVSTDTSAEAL
Test: cell-based or functional assay
Recorded Metric: Mean IC50 (nM), cAMP antagonist assay
The response must be a number in nM with no trailing unit.

Binder	Recorded Metric	Quantitative Readout
LIBC527968-1 (antibody, V domains shown) VH: QVQLQESGPGLVKPSQTLSLTCTVSGGSIRRGGDYWSWIRQHPGKGLEWIGHIYQSGSTKYNPSFKDRATISVNTYKNQFSLKLSSVTAADTAVYYCARDYDILTGYSYYYYGMDVWGQGTTVTVSS VL: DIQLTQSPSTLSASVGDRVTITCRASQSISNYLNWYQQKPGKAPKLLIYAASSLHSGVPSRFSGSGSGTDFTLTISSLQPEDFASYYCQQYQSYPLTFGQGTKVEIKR	Mean IC50 (nM), cAMP antagonist assay	4.03
LIBC523813-1 (antibody, V domains shown) VH: QVQLQESGPGLVKPSQTLSLTCTVSGGSIRRGGDYWSWIRQHPGKGLEWIGHVYYTGQTAYNPKFKDRATISVKTYKNQFSLKLSSVTAADTAVYYCARDYDILTGYSYYYYGMDVWGQGTTVTVSS VL: DIVMTQSPLSLPVTPGEPASISCRSSQSLLSSSGANYVDWYLQKPGQSPQLLIYLGSNRASGVPDRFSGSGSGTDFTLKISRVEAEDVGVYYCMQARGIPRTFGQGTKVEIKR	Mean IC50 (nM), cAMP antagonist assay	5.95
LIBC523844-1 (antibody, V domains shown) VH: QVQLQESGPGLVKPSQTLSLTCTVSGGSIRRGGDYWSWIRQHPGKGLEWIGHVYYTGSTKYNPSFKDRATISVNTYKNQFSLKLSSVTAADTAVYYCARDYDILTGYSYYYYGMDVWGQGTTVTVSS VL: DIVMTQSPLSLPVTPGEPASISCRSSQSLLSSSGANYVDWYLQKPGQSPQLLIYQGSNRASGVPDRFSGSGSGTDFTLKISRVEAEDVGVYYCRQARALPRTFGQGTKVEIKR	Mean IC50 (nM), cAMP antagonist assay	3.83
LIBC523760-1 (antibody, V domains shown) VH: QVQLQESGPGLVKPSQTLSLTCTVSGGSIRRGGDYWSWIRQHPGKGLEWIGHVYQTGSTKYNPKFKGRATISVNTYKNQFSLKLSSVTAADTAVYYCARDYDILTGYSYYYYGMDVWGQGTTVTVSS VL: DIVMTQSPLSLPVTPGEPASISCRSSQSLLTSSGANYVDWYLQKPGQSPQLLIYLGSNRASGVPDRFSGSGSGTDFTLKISRVEAEDVGVYYCRQAVGTPRTFGQGTKVEIKR	Mean IC50 (nM), cAMP antagonist assay	4.28

Consider now this further binder.
Inquiry: Please report the recorded Mean IC50 (nM), cAMP antagonist assay for LIBC527997-1 (antibody, V domains shown, Expressed as IgG1 SEFL2 mAb) VH: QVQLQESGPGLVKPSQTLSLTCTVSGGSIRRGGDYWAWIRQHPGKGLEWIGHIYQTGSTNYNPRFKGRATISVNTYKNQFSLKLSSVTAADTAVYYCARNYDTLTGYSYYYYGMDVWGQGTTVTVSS VL: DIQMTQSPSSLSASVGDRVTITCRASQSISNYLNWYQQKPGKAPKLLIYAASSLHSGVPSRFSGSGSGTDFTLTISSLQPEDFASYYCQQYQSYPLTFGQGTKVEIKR .
Reply text: 2.97
